All figures here come from patent US5707989A.

Molecular target: human EGF-R (Homo sapiens, UniProt P00533)
Sequence (P00533 25-1210): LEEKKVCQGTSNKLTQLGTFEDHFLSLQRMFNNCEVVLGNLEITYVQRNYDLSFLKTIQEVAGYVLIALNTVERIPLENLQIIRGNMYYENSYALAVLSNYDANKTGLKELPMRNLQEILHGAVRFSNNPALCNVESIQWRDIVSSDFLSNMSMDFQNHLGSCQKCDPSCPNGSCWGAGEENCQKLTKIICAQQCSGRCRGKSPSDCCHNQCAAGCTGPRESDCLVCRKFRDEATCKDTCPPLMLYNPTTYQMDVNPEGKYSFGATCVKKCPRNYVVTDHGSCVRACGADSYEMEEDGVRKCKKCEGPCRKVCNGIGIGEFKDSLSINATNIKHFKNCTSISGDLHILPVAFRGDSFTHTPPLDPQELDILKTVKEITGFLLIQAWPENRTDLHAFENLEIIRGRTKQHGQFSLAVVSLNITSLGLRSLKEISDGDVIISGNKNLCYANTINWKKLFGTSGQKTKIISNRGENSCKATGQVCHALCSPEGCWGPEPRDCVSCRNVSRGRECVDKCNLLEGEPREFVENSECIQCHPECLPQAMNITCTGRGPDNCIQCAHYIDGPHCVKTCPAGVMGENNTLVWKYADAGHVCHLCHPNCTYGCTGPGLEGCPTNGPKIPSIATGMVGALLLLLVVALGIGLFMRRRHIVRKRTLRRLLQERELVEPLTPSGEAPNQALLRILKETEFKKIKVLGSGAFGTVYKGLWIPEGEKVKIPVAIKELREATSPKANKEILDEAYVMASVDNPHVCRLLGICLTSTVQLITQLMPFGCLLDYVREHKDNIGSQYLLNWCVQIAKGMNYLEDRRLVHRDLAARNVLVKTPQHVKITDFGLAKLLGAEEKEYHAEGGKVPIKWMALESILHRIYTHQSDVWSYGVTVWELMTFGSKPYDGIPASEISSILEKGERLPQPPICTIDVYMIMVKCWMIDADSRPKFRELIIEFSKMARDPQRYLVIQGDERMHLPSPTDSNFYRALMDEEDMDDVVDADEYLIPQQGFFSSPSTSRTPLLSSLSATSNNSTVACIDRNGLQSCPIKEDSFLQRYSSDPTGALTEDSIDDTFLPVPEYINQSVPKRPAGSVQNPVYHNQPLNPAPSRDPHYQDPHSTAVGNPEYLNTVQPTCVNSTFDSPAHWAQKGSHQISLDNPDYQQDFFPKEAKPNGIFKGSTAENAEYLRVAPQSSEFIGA
Assay: Inhibition of EGF-dependent proliferation of F/L-HERc cells
Conditions: human EGF 20 ng/ml, 48 hours
measurement-label: IC50 (nM)

Examples from the recorded data:
smiles_entry=Cc1cccc(Nc2ncnc3cnc(NC4CC4)nc23)c1 observed_measurement=40
smiles_entry=Cc1cccc(Nc2ncnc3cnc(NC4CCN(C)CC4)nc23)c1 observed_measurement=40
smiles_entry=Cc1cccc(Nc2ncnc3cnc(N[C@H]4CC[C@H](C(=O)O)CC4)nc23)c1 observed_measurement=13
smiles_entry=Cc1cccc(Nc2ncnc3cnc(N[C@H]4CC[C@H](C(=O)N5CCOCC5)CC4)nc23)c1 observed_measurement=5
smiles_entry=Cc1cccc(Nc2ncnc3cnc(N)nc23)c1 observed_measurement=300
smiles_entry=Cc1cccc(Nc2ncnc3cnc(NC(C)(C)C)nc23)c1 observed_measurement=5

[P] Cc1cccc(Nc2ncnc3cnc(N4CCC(N)CC4)nc23)c1
[Q] CCN(CC)c1ncc2ncnc(Nc3cccc(C)c3)c2n1
[R] Cc1cccc(Nc2ncnc3cnc(NC4CCC(=O)CC4)nc23)c1
[S] COc1ncc2ncnc(Nc3cccc(C)c3)c2n1
Put these in order: smallest IC50 first, largest last. Respond with an ordered listing of the labels, as requested.
R, P, Q, S
(R: 15 nM, P: 32 nM, Q: 500 nM, S: 1000 nM)
